Here, each record is paired with measured melting point data.

As a guide, the following entries are already answered.
O=C1c2cc(OCc3ccccc3)nn2CCCN1CC1CC1    68.1 to 68.4 °C
O=C1c2cc(OCc3ccccc3)nn2CCCN1c1ccc(F)cc1    140.2 to 140.7 °C

Here is the next item to consider.
// melting point lookup, key: `O=C1c2cc(OCc3ccccc3)nn2CCCN1c1ccc(F)cn1`
112.1 to 119.1 °C

###

Here, each record is paired with measured EC50 data.
molecular target: UniProt:P41594; test: Cell-based functional assay (Ca2+ mobilization, FDSS), potentiation of glutamate EC20 response; details: H10H cell line; potentiation in presence of glutamate EC20; concentration in mol/L
Sequence (P41594 21-1180 isoform P41594-2 limits assumed): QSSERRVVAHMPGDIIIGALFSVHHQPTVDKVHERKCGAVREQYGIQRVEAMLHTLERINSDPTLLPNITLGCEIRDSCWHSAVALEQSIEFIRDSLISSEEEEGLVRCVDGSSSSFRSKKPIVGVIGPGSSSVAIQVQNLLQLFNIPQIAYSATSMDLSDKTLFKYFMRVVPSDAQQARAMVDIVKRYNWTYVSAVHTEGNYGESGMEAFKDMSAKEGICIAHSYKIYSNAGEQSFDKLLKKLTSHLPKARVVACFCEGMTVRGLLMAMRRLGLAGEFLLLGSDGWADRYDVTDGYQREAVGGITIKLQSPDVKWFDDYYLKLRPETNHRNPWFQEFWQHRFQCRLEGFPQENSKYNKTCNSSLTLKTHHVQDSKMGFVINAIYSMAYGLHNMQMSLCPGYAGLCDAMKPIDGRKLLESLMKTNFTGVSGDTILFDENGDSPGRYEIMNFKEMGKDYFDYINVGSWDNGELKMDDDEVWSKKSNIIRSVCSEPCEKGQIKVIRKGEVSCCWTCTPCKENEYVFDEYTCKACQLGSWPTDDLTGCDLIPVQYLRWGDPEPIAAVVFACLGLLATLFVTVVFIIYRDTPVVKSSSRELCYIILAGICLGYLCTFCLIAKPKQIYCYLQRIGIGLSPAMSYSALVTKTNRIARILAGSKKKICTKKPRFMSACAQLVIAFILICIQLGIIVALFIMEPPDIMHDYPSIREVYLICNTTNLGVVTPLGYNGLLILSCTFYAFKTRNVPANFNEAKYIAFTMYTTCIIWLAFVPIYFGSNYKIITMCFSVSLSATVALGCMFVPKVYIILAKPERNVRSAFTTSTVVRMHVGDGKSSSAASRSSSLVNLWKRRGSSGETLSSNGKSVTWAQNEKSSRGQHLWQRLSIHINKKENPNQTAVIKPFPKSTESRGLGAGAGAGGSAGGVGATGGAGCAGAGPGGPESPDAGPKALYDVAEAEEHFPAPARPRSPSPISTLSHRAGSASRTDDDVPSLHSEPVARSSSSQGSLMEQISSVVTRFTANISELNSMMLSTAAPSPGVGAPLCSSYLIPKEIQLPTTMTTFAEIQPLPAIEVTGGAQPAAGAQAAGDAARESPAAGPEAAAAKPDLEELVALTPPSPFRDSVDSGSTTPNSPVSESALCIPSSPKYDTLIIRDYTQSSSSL

COc1cccc(COc2cc3n(n2)CCN(c2ccc(F)cc2)C3=O)c1    > 30.2 µM
COc1ccc(COc2cc3n(n2)CCN(c2ccc(F)cc2)C3=O)cc1    > 30.2 µM
O=C1c2cc(OCc3ccccc3)nn2CCN1CC1CC1    ≥ 30.2 µM

Here is the next item to consider.
// EC50 lookup, key: O=C1c2cc(OCc3ccccc3)nn2CCN1CC1CC1(F)F (stereo not shown)
> 30.2 µM
